target: HLA-A*24:02; assay: IEDB peptide-MHC binding, purified MHC/competitive/fluorescence; bounds were set here for any values at or beyond the usual limits of such assays; conditions: source organism: Vaccinia virus WR
measured.quantity: IC50 (µM)
Write it as a number; the unit µM goes unstated.

Query block: Return IC50 measured with HLA-A*24:02 given this sequence: `KFMSNGEHV`
Result block: 4.44

* * *

target: HLA-A*11:01; experiment: IEDB peptide-MHC binding, purified MHC/competitive/radioactivity; filed as Kd, often an IC50 or EC50 that approximates it; bounds were set here for any values at or beyond the usual limits of such assays; settings: source organism: Vaccinia virus Copenhagen
measured.quantity: Kd (nM)
Write it as a number; the unit nM goes unstated.

>>> df
   item_sequence  system_tested  measured_quantity  uom  measured_value
0     PVYISQFSYK    HLA-A*11:01                 Kd   nM            19.2

# input for lookup
Query block: Which Kd is reported for this sequence? `SVLDIISSK`
Result block: 6.72

* * *

target: HLA-A*02:01; assay: IEDB peptide-MHC binding, purified MHC/direct/fluorescence; filed as Kd, often an IC50 or EC50 that approximates it; bounds were set here for any values at or beyond the usual limits of such assays; details: source organism: Collimonas fungivorans
measured.quantity: Kd

Query block: Which Kd is reported for this sequence? `AYSPFAFKK`
Result block: ≥ 20 µM

* * *

molecular target: HLA-B*44:03; test: IEDB peptide-MHC binding, purified MHC/competitive/radioactivity; filed as Kd, often an IC50 or EC50 that approximates it; bounds were set here for any values at or beyond the usual limits of such assays; conditions: source organism: Homo sapiens
measured.quantity: pKd
Please note pKd is a logarithmic value: minus log10 of concentration in mol/L. Answer with that number alone.

Query block: Return pKd measured with HLA-B*44:03 given this sequence: `AEPIDIQTW`
Result block: 7.18

* * *

molecular target: HLA-A*02:02; assay: IEDB peptide-MHC binding, purified MHC/competitive/radioactivity; filed as Kd, often an IC50 or EC50 that approximates it; bounds were set here for any values at or beyond the usual limits of such assays; details: source organism: Vaccinia virus WR
Binary call on Kd with cut-off 2 µM: strictly below means condition met, and equality or higher means condition not met.

Illustrative cases are given below, each with its answer.
>>> print(df.to_string())
   item_sequence     classification
0      RASTTENAA  condition not met
1     TIVSRSSRGV  condition not met
2      CTMERTNDL      condition met
3     SLDQTHIKTI      condition met

Query block: Say whether its Kd is strictly beneath 2 µM. Entry: `DIISSKQYPA`
Result block: condition met

Query block: Say whether its Kd is strictly beneath 2 µM. Entry: `GINNVQSLI`
Result block: condition met

Query block: Say whether its Kd is strictly beneath 2 µM. Entry: `KLLSTSNVIT`
Result block: condition not met

* * *

target: HLA-B*46:01; assay: IEDB peptide-MHC binding, purified MHC/direct/fluorescence; filed as Kd, often an IC50 or EC50 that approximates it; bounds were set here for any values at or beyond the usual limits of such assays; settings: source organism: Marburg virus - Musoke, Kenya, 1980
pKd: −log10 of the molar value.
measured.quantity: pKd

Query block: Which pKd is reported for this sequence? `THYSGNIVH`
Result block: ≤ 4.70

* * *

target: HLA-B*53:01; assay: IEDB peptide-MHC binding, purified MHC/competitive/radioactivity; filed as Kd, often an IC50 or EC50 that approximates it; bounds were set here for any values at or beyond the usual limits of such assays; conditions: source organism: Triticum aestivum
measured.quantity: pKd
Please note pKd is a logarithmic value: minus log10 of concentration in mol/L. Answer with that number alone.

Query block: Which pKd is reported for this sequence? `LPAMCNVY`
Result block: 5.97

* * *

molecular target: HLA-A*80:01; assay: IEDB peptide-MHC binding, purified MHC/direct/fluorescence; filed as Kd, often an IC50 or EC50 that approximates it; bounds were set here for any values at or beyond the usual limits of such assays; settings: source organism: dengue virus type 3
measured.quantity: Kd (µM)
Write it as a number; the unit µM goes unstated.

Query block: Which Kd is reported for this sequence? `KTWAYHGSY`
Result block: 3

* * *

molecular target: HLA-B*15:17; test: IEDB peptide-MHC binding, purified MHC/competitive/fluorescence; filed as Kd, often an IC50 or EC50 that approximates it; bounds were set here for any values at or beyond the usual limits of such assays; details: source organism: Reston ebolavirus
// reported Kd for each item listed

In [3]: df
Out[3]:
   item_sequence  system_tested  measured_quantity  measured_value
0      QAFEAGIDF    HLA-B*15:17                 Kd         ≥ 20 µM

# input for lookup
Query block: Which Kd is reported for this sequence? `FHRKKTDAL`
Result block: ≥ 20 µM

* * *

biological target: HLA-A*02:03; assay: IEDB peptide-MHC binding, purified MHC/direct/fluorescence; filed as Kd, often an IC50 or EC50 that approximates it; bounds were set here for any values at or beyond the usual limits of such assays; settings: source organism: Giardia lamblia ATCC 50803
measured.quantity: Kd

Query block: Return Kd measured with HLA-A*02:03 given this sequence: `MTFPLHFRS`
Result block: ≥ 20 µM

* * *

// reported Kd for each item listed
biological target: HLA-A*26:01; assay: IEDB peptide-MHC binding, purified MHC/direct/fluorescence; filed as Kd, often an IC50 or EC50 that approximates it; bounds were set here for any values at or beyond the usual limits of such assays; details: source organism: Vibrio cholerae

In [3]: df
Out[3]:
   item_sequence  measured_quantity  measured_value
0      AEIDRSFKP                 Kd         ≥ 20 µM

# input for lookup
Query block: Which Kd is reported for this sequence? `GEHWLGRIW`
Result block: ≥ 20 µM

* * *

target: HLA-A*03:01; assay: IEDB peptide-MHC binding, purified MHC/direct/fluorescence; filed as Kd, often an IC50 or EC50 that approximates it; bounds were set here for any values at or beyond the usual limits of such assays; settings: source organism: Campylobacter jejuni RM1221
measured.quantity: pKd
Please note pKd is a logarithmic value: minus log10 of concentration in mol/L. Answer with that number alone.

Query block: Which pKd is reported for this sequence? `KVSDSNLHK`
Result block: 6.72

* * *

molecular target: HLA-B*27:03; test: IEDB peptide-MHC binding, purified MHC/competitive/fluorescence; filed as Kd, often an IC50 or EC50 that approximates it; bounds were set here for any values at or beyond the usual limits of such assays; settings: source organism: Reston ebolavirus
pKd: −log10 of the molar value.
measured.quantity: pKd

// worked examples, pKd included
>>> print(df.to_string())
   item_sequence  system_tested  measured_value
0      QAFEAGIDF    HLA-B*27:03          ≤ 4.70
1      KHDFIDNPL    HLA-B*27:03          ≤ 4.70

# input for lookup
Query block: Which pKd is reported for this sequence? `FHRKKTDAL`
Result block: ≤ 4.70

* * *

target: HLA-A*02:11; experiment: IEDB peptide-MHC binding, purified MHC/direct/fluorescence; filed as Kd, often an IC50 or EC50 that approximates it; bounds were set here for any values at or beyond the usual limits of such assays; details: source organism: Limestone Canyon virus
pKd: −log10 of the molar value.
measured.quantity: pKd

Query block: Which pKd is reported for this sequence? `SPVMGVIGF`
Result block: ≤ 4.70

* * *

target: HLA-A*02:02; experiment: IEDB peptide-MHC binding, purified MHC/competitive/radioactivity; filed as Kd, often an IC50 or EC50 that approximates it; bounds were set here for any values at or beyond the usual limits of such assays; conditions: source organism: Lassa virus Josiah
measured.quantity: pKd
Please note pKd is a logarithmic value: minus log10 of concentration in mol/L. Answer with that number alone.

Query block: Return pKd measured with HLA-A*02:02 given this sequence: `LIALSVLAV`
Result block: 6.93

* * *

target: HLA-A*11:01; experiment: IEDB peptide-MHC binding, purified MHC/competitive/fluorescence; filed as Kd, often an IC50 or EC50 that approximates it; bounds were set here for any values at or beyond the usual limits of such assays; settings: source organism: Human immunodeficiency virus 1
pKd: −log10 of the molar value.
measured.quantity: pKd

Query block: Return pKd measured with HLA-A*11:01 given this sequence: `VLYCVHQEI`
Result block: ≤ 4.70

* * *

biological target: HLA-B*46:01; assay: IEDB peptide-MHC binding, purified MHC/direct/fluorescence; filed as Kd, often an IC50 or EC50 that approximates it; bounds were set here for any values at or beyond the usual limits of such assays; details: source organism: Yellow fever virus
pKd: −log10 of the molar value.
measured.quantity: pKd

Query block: Which pKd is reported for this sequence? `AQAVMEMTY`
Result block: ≤ 4.70

Sourced from the Immune Epitope Database (IEDB)
